The measured values listed here are drawn from PubChem BioAssay AID1159580.

# measurementProtocol: chemical genetic growth profiling, strain panel (AID 1159580);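 further: tested at 20 µM; growth read once vehicle control cultures reached saturation at 30 °C; 1 = growth at the plate median or of vehicle wells; lower values mean less growth of the strain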
# conditionContext: S. cerevisiae deletion strains, growth OD, locus YER111C, strain swi4, stronger effect = lower value
The campaign covered roughly 5,500 compounds. About 2,000 (36%) were called active. Another 18% or so got no clear call; they are omitted. This is one part of the list.
normalized growth under 1 gets rule met, anything at or over 1 gets rule not met.

> print(dat)
                                   compound  classname
1  CC1CCC(NC(=O)N(CCCl)N=O)CC1 (centres undefined)   rule met
2  Oc1c(Cl)cc(Cl)c(Cl)c1Cc1c(O)c(Cl)cc(Cl)c1Cl   rule met
3                      O=NN(CCCl)C(=O)NCCCl   rule met

Exercise: For this compound, is normalized growth lower than 1? O=C(O)[C@@H](S)[C@@H](S)C(=O)O
Solution: rule met

Exercise: For this compound, is normalized growth lower than 1? COc1ccc2oc3ccccc3c(=O)c2c1
Solution: rule met

Exercise: For this compound, is normalized growth lower than 1? NC1(C(=O)O)CCCC1
Solution: rule not met

* * *

# measurementProtocol: chemical genetic growth profiling, strain panel (AID 1159580);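 further: tested at 20 µM; growth read once vehicle control cultures reached saturation at 30 °C; 1 = growth at the plate median or of vehicle wells; lower values mean less growth of the strain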
# conditionContext: S. cerevisiae deletion strains, growth OD, locus YLR268W, strain sec22, stronger effect = lower value
The whole screen tested about 5,500 compounds, of which about 2,000 (36%) were called active. Roughly 18% stayed inconclusive and do not appear here. The list shows a part of the results.
measuredAttribute: normalized growth
Reply with the value as a number alone.

# annotated cases, reported normalized growth shown
molecule	assayResult
C[C@]12CCC3c4ccc(OC(=O)c5ccccc5)cc4CCC3C1CCC2=O (stereo partly specified)	0.972
CN1CCC[C@@H]1CCO[C@](C)(c1ccccc1)c1ccc(Cl)cc1	0.929
Cc1cc(/C=C/c2ccc3cc(N(C)C)ccc3[n+]2C)c(C)n1-c1ccccc1	0.919

Documented normalized growth of CC(=O)O[C@@H]1CC2C(C)(C)[C@H](O)CC[C@]2(C)C2CC[C@@]3(C)[C@H](c4ccoc4)OC(=O)[C@H]4O[C@]43[C@@]21C (stereo partly specified) : 0.975

Documented normalized growth of CC(=O)C1CCC2C3CCC4C[C@H](O)CCC4(C)C3C[C@H](O)C12C (stereo partly specified) : 1.02

Documented normalized growth of CC(=O)Oc1ccc2c(c1)CCC1C2CC[C@]2(C)C(=O)CCC12 (stereo partly specified) : 1.01

Documented normalized growth of c1ccc2c(CC3=NCCN3)cccc2c1 : 1.02

* * *

# measurementProtocol: chemical genetic growth profiling, strain panel (AID 1159580);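 further: tested at 20 µM; growth read once vehicle control cultures reached saturation at 30 °C; 1 = growth at the plate median or of vehicle wells; lower values mean less growth of the strain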
# conditionContext: S. cerevisiae deletion strains, growth OD, locus YPL256C, strain CLN2, stronger effect = lower value
Screen size: about 5,500 compounds; about 2,000 (36%) were called active. Not shown: some 18% with an inconclusive outcome. This is one part of the list.
Classify on normalized growth using b0 (below 0.9), b1 (0.9 to below 1), b2 (1 or more)

compound	className
COc1ccc(-c2oc3cc(OC)c(OC)c(OC)c3c(=O)c2OC)cc1	b2
O=S(=O)(Nc1cc(Cl)c(Cl)cc1Cl)c1cc(C(F)(F)F)cc(C(F)(F)F)c1	b0
C[C@@H](Nc1ncnc2sc3c(c12)CCCC3)c1ccccc1	b0

Exercise: Which normalized growth category applies to O=C(Nc1cc(Cl)ccc1O)c1ccccc1CSc1ccc(Cl)cc1 here?
Solution: b0

Exercise: Which normalized growth category applies to NC(C(=O)O)C(O)C(=O)O (stereo unspecified) here?
Solution: b2

Exercise: Which normalized growth category applies to O=C(Nc1cc(C(F)(F)F)cc(C(F)(F)F)c1)C(Cl)(Cl)Cl here?
Solution: b0

Exercise: Which normalized growth category applies to NCC[C@@H](O)C(=O)N[C@@H]1C[C@H](N)[C@@H](O[C@H]2O[C@H](CN)[C@@H](O)[C@H](O)[C@H]2O)[C@H](O)[C@H]1O[C@H]1O[C@H](CO)[C@@H](O)[C@H](N)C1O (stereo partly specified) here?
Solution: b2

Exercise: Which normalized growth category applies to C[C@H]1C[C@@H](O)[C@]2(O)[C@@]13CC(=O)OC[C@@]2(C)[C@](C)(O)C(=O)C3 here?
Solution: b2

Exercise: Which normalized growth category applies to NC(=O)NC1NC(=O)NC1=O (stereo unspecified) here?
Solution: b2
